- systemTested: hH3R (Homo sapiens, UniProt Q9Y5N1)
- Construct: expressed in transfected cells; host or cells: HEK-293 cells stably expressing hH3R
- Sequence (Q9Y5N1 whole entry): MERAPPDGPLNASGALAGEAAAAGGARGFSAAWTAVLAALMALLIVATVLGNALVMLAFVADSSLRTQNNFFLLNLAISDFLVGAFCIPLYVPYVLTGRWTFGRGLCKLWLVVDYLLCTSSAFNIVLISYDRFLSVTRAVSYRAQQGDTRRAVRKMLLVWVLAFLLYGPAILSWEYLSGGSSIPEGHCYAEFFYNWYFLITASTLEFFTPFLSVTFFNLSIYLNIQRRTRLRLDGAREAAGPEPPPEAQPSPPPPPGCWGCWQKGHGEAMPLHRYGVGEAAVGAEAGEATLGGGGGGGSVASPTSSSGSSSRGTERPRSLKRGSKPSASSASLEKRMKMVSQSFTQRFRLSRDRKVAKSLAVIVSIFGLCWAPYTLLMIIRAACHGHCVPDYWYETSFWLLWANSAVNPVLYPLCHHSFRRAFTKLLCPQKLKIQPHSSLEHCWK
- experimentDescription: hH3R radioligand displacement assay ([3H]Nα-methylhistamine, HEK-293-hH3R membranes)
- Type: binding
- conditionSummary: Table 2, biological activity repeated next to the IFD results; read-out: Ki
- Experimental: Radioligand displacement assays were performed on the membrane fractions of HEK-293 cells stably expressing hH3R455, which occurs mainly in the brain, as described previously with slight modifications. […] Radioactivity was determined by liquid scintillation counting. […] The test ligands were evaluated at concentrations between 100 µM and 0.03 nM. […] Specific binding was calculated by subtracting non-specific binding from the raw data. […]
quantityName: Ki (nM)
Give bare numbers, in nM.

INPUT: Give the measured Ki of `c1ccc([P+](CCCCCCCCCCOc2ccc(OCCCN3CCCCC3)cc2)(c2ccccc2)c2ccccc2)cc1` .
OUTPUT: 67.4

###

- System: SH-SY5Y cells
- experimentDescription: Cytotoxic effects on SH-SY5Y cells after 24 h (alamar blue viability assay)
- Assay type: cell-based
- conditionSummary: 24 h, 95% confidence interval, at least three independent experiments, read-out: LC50 (the source's name)
quantityName: CC50 (nM)
Answers are plain numbers, in nM.

INPUT: Look up CC50: `c1ccc([P+](CCCCCCCCCOc2ccc(OCCCN3CCCCC3)cc2)(c2ccccc2)c2ccccc2)cc1`
OUTPUT: 910

###

- experimentDescription: Cytotoxic effects on SH-SY5Y cells after 24 h (alamar blue viability assay)
- Assay type: cell-based
- conditionSummary: human, SH-SY5Y neuroblastoma cells, 24 h, 95% confidence interval, at least three independent experiments, read-out: LC50
Mark criterion met for CC50 at 24 h under 10 µM, criterion not met if at or over.

# compound, discreteLabel
measured = [
    ("c1ccc([P+](CCCCCCCCCOc2ccc(OCCCN3CCCCC3)cc2)(c2ccccc2)c2ccccc2)cc1 [Compound 6e]", "criterion met"),
    ("[Br-].c1ccc([P+](CCCCCOc2ccc(OCCCN3CCCCC3)cc2)(c2ccccc2)c2ccccc2)cc1 [Compound 6b]", "criterion not met"),
    ("c1ccc([P+](CCCCOc2ccc(OCCCN3CCCCC3)cc2)(c2ccccc2)c2ccccc2)cc1 [Compound 6a]", "criterion not met"),
    ("c1ccc([P+](CCCCCCCCCCOc2ccc(OCCCN3CCCCC3)cc2)(c2ccccc2)c2ccccc2)cc1 [Compound 6f]", "criterion met"),
    ("c1ccc([P+](CCCCCCCCOc2ccc(OCCCN3CCCCC3)cc2)(c2ccccc2)c2ccccc2)cc1 [Compound 6d]", "criterion met"),
]

INPUT: Please indicate whether the reported CC50 at 24 h of c1ccc([P+](CCCCCCOc2ccc(OCCCN3CCCCC3)cc2)(c2ccccc2)c2ccccc2)cc1 [Compound 6c] is strictly below 10 µM.
OUTPUT: criterion not met

###

- systemTested: hH3R (Homo sapiens, UniProt Q9Y5N1)
- Construct: expressed in transfected cells; host or cells: HEK-293 cells stably expressing hH3R
- experimentDescription: hH3R radioligand displacement assay ([3H]Nα-methylhistamine, HEK-293-hH3R membranes)
- Assay type: binding
- conditionSummary: [3H]Nα-methylhistamine displacement on HEK-293-hH3R membranes; 95% confidence interval, at least three independent experiments; read-out: hH3R Ki
- Method: Radioligand displacement assays were performed on the membrane fractions of HEK-293 cells stably expressing hH3R455, which occurs mainly in the brain, as described previously with slight modifications. […] Radioactivity was determined by liquid scintillation counting. […] The test ligands were evaluated at concentrations between 100 µM and 0.03 nM. […] Specific binding was calculated by subtracting non-specific binding from the raw data. […]
quantityName: Ki (nM)
Numbers only, in nM.

# molSmiles, recordedNumber
records = [
    ("c1ccc([P+](CCCCOc2ccc(OCCCN3CCCCC3)cc2)(c2ccccc2)c2ccccc2)cc1", 32),
    ("c1ccc([P+](CCCCCCCCCCOc2ccc(OCCCN3CCCCC3)cc2)(c2ccccc2)c2ccccc2)cc1", 67.4),
    ("c1ccc([P+](CCCCCCOc2ccc(OCCCN3CCCCC3)cc2)(c2ccccc2)c2ccccc2)cc1", 31.5),
]

Give Ki for each listed item.
1. c1ccc([P+](CCCCCCCCCOc2ccc(OCCCN3CCCCC3)cc2)(c2ccccc2)c2ccccc2)cc1
2. [Br-].c1ccc([P+](CCCCCOc2ccc(OCCCN3CCCCC3)cc2)(c2ccccc2)c2ccccc2)cc1
3. c1ccc([P+](CCCCCCCCOc2ccc(OCCCN3CCCCC3)cc2)(c2ccccc2)c2ccccc2)cc1

OUTPUT:
[14.1, 17.6, 20.4]
